# Tested on: EML4-ALK wt transformed Ba/F3 cells
# procedure-summary: Ba/F3 single point inhibition assay (MTS)
# Type: cell-based
# condition-notes: single dose 1 μM, 72 hours
List of Percent viability of untreated control, wt values.
measured-quantity: Percent viability of untreated control, wt

compound: CCc1cc2c(cc1C(=O)O)C(C)(C)c1[nH]c3cc(C#N)ccc3c1C2=O [Compound 24]
tested-on: EML4-ALK wt transformed Ba/F3 cells
test-result: 57%

compound: CCc1cc2c(cc1C#N)C(C)(C)c1[nH]c3cc(C#N)ccc3c1C2=O [Compound 21]
tested-on: EML4-ALK wt transformed Ba/F3 cells
test-result: 19%

compound: CCc1cc2c(cc1-c1cnn(C(C)(C)C(=O)N(C)C)c1)C(C)(C)c1[nH]c3cc(C#N)ccc3c1C2=O [Compound 35]
tested-on: EML4-ALK wt transformed Ba/F3 cells
test-result: 0%

compound: CCc1cc2c(cc1-c1cncnc1)C(C)(C)c1[nH]c3cc(C#N)ccc3c1C2=O [Compound 16]
tested-on: EML4-ALK wt transformed Ba/F3 cells
test-result: 3%

compound: CCc1cc2c(cc1-c1cnn(C)c1)C(C)(C)c1[nH]c3cc(C#N)ccc3c1C2=O [Compound 7]
tested-on: EML4-ALK wt transformed Ba/F3 cells
test-result: 1%

compound: CCc1cc2c(cc1N1CCC(N(C)C)CC1)C(C)(C)c1[nH]c3cc(C#N)ccc3c1C2=O [Compound 17]
tested-on: EML4-ALK wt transformed Ba/F3 cells
test-result: 2%

compound: CCc1cc2c(cc1N1CCN(C)CC1)C(C)(C)c1[nH]c3cc(C#N)ccc3c1C2=O [Compound 19]
tested-on: EML4-ALK wt transformed Ba/F3 cells
test-result: 0.1%

compound: CCc1cc2c(cc1-c1cccs1)C(C)(C)c1[nH]c3cc(C#N)ccc3c1C2=O [Compound 12]
tested-on: EML4-ALK wt transformed Ba/F3 cells
test-result: 12%

---

List of pIC50 values.
# tested-on: EML4-ALK G1202R transformed Ba/F3 cells (Homo sapiens, UniProt Q9UM73, G1202R, cells depend on it)
# Sequence (Q9UM73 19-1620 G1202R limits assumed): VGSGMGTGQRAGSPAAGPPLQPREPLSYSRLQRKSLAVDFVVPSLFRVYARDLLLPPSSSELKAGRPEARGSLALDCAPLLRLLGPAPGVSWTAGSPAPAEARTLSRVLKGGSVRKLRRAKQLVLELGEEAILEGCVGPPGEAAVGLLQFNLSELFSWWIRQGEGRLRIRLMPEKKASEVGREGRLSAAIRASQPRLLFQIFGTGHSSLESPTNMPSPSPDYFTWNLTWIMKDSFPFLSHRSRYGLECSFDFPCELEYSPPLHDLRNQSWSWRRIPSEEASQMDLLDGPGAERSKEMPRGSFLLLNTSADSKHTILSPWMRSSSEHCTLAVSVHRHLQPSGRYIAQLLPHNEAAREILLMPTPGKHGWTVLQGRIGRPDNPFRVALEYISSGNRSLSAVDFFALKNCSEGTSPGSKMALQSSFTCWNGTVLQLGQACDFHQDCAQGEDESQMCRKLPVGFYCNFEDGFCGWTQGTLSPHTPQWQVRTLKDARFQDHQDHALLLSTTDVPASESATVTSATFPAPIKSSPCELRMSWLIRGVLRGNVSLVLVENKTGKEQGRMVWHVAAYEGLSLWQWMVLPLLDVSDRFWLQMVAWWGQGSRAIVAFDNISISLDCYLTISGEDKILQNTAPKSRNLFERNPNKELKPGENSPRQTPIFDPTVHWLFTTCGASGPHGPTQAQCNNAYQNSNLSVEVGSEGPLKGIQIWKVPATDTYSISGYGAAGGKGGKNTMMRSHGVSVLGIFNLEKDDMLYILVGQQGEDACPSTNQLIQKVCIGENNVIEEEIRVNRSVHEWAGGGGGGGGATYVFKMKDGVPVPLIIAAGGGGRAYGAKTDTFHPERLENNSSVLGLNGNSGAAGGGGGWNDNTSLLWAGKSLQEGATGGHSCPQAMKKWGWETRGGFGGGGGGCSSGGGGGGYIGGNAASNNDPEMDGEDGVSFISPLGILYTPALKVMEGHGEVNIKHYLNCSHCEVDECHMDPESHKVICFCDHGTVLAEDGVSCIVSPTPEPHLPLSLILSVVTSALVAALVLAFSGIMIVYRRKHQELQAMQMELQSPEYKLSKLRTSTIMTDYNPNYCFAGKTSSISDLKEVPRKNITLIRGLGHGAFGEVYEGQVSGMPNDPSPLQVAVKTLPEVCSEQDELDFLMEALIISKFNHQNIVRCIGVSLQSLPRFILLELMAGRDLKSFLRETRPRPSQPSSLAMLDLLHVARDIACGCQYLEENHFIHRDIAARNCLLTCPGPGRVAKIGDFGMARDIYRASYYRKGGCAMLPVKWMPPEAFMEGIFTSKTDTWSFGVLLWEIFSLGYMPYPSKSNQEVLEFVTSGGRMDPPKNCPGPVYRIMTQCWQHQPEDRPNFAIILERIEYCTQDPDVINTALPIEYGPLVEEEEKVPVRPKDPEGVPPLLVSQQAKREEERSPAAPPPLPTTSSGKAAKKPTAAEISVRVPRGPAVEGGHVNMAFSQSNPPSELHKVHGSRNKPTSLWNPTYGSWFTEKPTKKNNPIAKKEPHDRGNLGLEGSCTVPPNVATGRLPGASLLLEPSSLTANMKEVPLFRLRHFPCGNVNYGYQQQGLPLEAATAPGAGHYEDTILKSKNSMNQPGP
# procedure-summary: Ba/F3 dose escalation MTS viability assay
# condition-notes: 72 hours
pIC50: −log10 of the molar value.

compound: CCc1cc2c(cc1N1CCC(N(C)C)CC1)C(C)(C)c1[nH]c3cc(C#N)ccc3c1C2=O [Compound 17]
pIC50: 6.32
--
compound: CCc1cc2c(cc1-c1cnoc1)C(C)(C)c1[nH]c3cc(C#N)ccc3c1C2=O [Compound 10]
pIC50: 7.10
--
compound: CCc1cc2c(cc1-c1cnn[nH]1)C(C)(C)c1[nH]c3cc(C#N)ccc3c1C2=O [Compound 13]
pIC50: 6.67
--
compound: CCc1cc2c(cc1-c1cnn(CCN(C)C)c1)C(C)(C)c1[nH]c3cc(C#N)ccc3c1C2=O [Compound 31]
pIC50: 8.10

---

List of Percent viability of untreated control, wt values.
# Test system: EML4-ALK wt transformed Ba/F3 cells
# procedure-summary: Ba/F3 single point inhibition assay (MTS)
# Type: cell-based
# condition-notes: single dose 1 μM, 72 hours
measured-quantity: Percent viability of untreated control, wt (%)

compound: CCc1cc2c(cc1N(C)CCN(C)C)C(C)(C)c1[nH]c3cc(C#N)ccc3c1C2=O [Compound 28]
tested-on: EML4-ALK wt transformed Ba/F3 cells
test-result: 2
//
compound: CCc1cc2c(cc1-c1cnn(CC(=O)NC)c1)C(C)(C)c1[nH]c3cc(C#N)ccc3c1C2=O [Compound 33]
tested-on: EML4-ALK wt transformed Ba/F3 cells
test-result: 0
//
compound: CCc1cc2c(cc1-c1ccc(N)nc1)C(C)(C)c1[nH]c3cc(C#N)ccc3c1C2=O [Compound 27]
tested-on: EML4-ALK wt transformed Ba/F3 cells
test-result: 12

---

# tested-on: EML4-ALK C1156Y transformed Ba/F3 cells (Homo sapiens, UniProt Q9UM73, C1156Y, cells depend on it)
# Sequence (Q9UM73 19-1620 C1156Y limits assumed): as the sequence (Q9UM73 19-1620 G1202R limits assumed) above, with C1138Y, R1184G counted along it
# procedure-summary: Ba/F3 dose escalation MTS viability assay
# condition-notes: 72 hours
pIC50: −log10 of the molar value.
List of pIC50 values.

smiles-text: CCc1cc2c(cc1-c1cnn(CCN(C)C)c1)C(C)(C)c1[nH]c3cc(C#N)ccc3c1C2=O
pIC50: 7.62
--
smiles-text: CCc1cc2c(cc1-c1cnn[nH]1)C(C)(C)c1[nH]c3cc(C#N)ccc3c1C2=O
pIC50: 6.75
--
smiles-text: CCc1cc2c(cc1N1CCC(N(C)C)CC1)C(C)(C)c1[nH]c3cc(C#N)ccc3c1C2=O
pIC50: 8.70
--
smiles-text: CCc1cc2c(cc1-c1cnoc1)C(C)(C)c1[nH]c3cc(C#N)ccc3c1C2=O
pIC50: 6.94

---

# tested-on: EML4-ALK L1152R transformed Ba/F3 cells (Homo sapiens, UniProt Q9UM73, L1152R, cells depend on it)
# Sequence (Q9UM73 19-1620 L1152R limits assumed): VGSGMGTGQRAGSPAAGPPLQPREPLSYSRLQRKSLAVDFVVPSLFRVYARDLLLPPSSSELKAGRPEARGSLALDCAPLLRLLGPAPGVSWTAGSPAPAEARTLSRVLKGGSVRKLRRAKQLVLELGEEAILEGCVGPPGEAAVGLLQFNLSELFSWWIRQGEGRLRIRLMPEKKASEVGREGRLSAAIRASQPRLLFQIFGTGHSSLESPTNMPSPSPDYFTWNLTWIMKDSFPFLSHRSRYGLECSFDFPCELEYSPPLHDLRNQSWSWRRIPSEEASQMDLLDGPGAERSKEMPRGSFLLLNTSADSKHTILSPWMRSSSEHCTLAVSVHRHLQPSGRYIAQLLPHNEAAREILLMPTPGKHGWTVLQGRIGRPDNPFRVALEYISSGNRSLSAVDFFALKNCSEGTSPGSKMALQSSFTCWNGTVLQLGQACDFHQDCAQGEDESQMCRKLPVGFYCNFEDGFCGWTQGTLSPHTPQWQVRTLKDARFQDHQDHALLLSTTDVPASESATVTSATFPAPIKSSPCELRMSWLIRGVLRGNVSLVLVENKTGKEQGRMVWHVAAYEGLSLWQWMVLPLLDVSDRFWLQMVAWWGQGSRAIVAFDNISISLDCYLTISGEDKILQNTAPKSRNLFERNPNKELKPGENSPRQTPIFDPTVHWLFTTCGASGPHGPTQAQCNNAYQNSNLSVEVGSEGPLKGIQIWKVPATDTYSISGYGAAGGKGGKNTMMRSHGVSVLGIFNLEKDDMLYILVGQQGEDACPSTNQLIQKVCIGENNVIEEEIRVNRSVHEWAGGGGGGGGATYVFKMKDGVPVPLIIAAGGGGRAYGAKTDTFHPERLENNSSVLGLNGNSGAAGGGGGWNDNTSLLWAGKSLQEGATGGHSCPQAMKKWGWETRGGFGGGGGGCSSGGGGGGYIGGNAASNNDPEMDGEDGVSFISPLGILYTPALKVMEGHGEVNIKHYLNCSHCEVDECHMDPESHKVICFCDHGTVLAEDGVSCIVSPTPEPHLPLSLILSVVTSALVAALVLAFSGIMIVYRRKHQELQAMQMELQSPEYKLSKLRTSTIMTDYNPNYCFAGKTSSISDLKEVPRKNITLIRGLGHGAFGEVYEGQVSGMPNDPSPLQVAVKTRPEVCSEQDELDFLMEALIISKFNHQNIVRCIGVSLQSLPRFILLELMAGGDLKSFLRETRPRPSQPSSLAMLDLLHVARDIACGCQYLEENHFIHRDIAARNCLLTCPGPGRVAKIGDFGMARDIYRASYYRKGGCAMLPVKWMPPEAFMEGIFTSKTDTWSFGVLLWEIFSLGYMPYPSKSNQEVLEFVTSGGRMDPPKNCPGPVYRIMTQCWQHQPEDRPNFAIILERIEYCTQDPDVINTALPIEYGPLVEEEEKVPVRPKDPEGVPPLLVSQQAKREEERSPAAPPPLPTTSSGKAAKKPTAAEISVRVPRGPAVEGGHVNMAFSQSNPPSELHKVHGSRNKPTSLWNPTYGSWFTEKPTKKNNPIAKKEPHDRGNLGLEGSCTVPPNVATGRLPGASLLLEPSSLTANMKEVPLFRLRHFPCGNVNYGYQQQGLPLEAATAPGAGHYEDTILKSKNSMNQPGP
# procedure-summary: Ba/F3 dose escalation MTS viability assay
# condition-notes: 72 hours
pIC50: −log10 of the molar value.
List of pIC50 values.
measured-quantity: pIC50

molecule: CCc1cc2c(cc1-c1cnoc1)C(C)(C)c1[nH]c3cc(C#N)ccc3c1C2=O [Compound 10]
test-result: 6.46
--
molecule: CCc1cc2c(cc1-c1cnn[nH]1)C(C)(C)c1[nH]c3cc(C#N)ccc3c1C2=O [Compound 13]
test-result: 6.46
--
molecule: CCc1cc2c(cc1-c1cnn(CCN(C)C)c1)C(C)(C)c1[nH]c3cc(C#N)ccc3c1C2=O [Compound 31]
test-result: 6.26
--
molecule: CCc1cc2c(cc1N1CCC(N(C)C)CC1)C(C)(C)c1[nH]c3cc(C#N)ccc3c1C2=O [Compound 17]
test-result: 6.16
